tested-system: UniProtKB Q13177
Sequence (Q13177 whole entry, looked up): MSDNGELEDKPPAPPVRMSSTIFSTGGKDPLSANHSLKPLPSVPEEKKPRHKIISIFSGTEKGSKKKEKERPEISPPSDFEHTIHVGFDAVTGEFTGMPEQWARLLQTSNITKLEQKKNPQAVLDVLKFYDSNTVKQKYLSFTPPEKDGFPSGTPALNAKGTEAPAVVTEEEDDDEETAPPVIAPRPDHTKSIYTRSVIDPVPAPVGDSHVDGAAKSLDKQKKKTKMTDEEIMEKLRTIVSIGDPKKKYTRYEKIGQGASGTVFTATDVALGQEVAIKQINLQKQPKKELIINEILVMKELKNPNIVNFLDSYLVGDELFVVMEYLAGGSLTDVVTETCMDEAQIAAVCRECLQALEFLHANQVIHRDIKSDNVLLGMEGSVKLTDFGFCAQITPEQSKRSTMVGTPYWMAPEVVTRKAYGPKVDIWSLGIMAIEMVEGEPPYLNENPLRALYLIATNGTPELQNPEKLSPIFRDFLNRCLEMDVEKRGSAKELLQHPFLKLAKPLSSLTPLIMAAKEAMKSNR
test-name: KINOMEscan competition binding
test-conditions: compound 10.0 µM
readout-type: kinase still bound, per cent of control (%)
Note: unit % is implicit; provide only the numeric part.

Data point: `CCN(CCO)CCCOc1ccc2c(Nc3cc(CC(=O)Nc4cccc(F)c4)[nH]n3)ncnc2c1` ; kinase still bound, per cent of control = 100

====

tested-system: NEK9 (human) (UniProt Q8TD19)
Sequence (Q8TD19 whole entry, looked up): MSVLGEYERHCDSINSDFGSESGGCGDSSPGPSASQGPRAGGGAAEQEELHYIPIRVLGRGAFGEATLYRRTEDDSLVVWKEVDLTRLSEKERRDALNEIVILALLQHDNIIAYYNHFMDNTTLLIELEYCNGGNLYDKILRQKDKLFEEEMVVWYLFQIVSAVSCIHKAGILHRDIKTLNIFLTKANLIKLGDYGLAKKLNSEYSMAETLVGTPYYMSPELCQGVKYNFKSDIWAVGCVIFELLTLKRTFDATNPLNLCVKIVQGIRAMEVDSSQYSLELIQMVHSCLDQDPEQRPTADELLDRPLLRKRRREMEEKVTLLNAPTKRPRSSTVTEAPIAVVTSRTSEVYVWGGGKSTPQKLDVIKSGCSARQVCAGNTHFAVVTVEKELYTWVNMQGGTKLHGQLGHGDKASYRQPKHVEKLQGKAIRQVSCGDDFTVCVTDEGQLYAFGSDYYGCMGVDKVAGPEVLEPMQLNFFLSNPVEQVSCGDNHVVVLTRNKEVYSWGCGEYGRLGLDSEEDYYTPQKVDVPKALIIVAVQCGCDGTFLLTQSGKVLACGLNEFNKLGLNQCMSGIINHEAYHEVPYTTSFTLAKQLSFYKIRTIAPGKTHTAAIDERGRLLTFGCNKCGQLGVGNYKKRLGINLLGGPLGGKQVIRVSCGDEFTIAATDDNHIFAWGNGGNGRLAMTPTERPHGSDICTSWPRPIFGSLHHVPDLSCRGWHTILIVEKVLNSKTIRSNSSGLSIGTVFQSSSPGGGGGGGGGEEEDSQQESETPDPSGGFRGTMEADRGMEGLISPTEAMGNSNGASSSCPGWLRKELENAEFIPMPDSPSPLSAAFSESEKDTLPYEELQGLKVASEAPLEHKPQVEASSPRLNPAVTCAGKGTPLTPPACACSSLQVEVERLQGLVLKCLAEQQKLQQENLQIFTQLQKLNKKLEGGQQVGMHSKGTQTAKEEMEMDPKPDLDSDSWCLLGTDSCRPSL
test-name: KINOMEscan competition binding
test-conditions: compound 10.0 µM
Each item that follows carries a reported kinase still bound, per cent of control.
Only the number, expressed in %, is required.

INSERT INTO measurements (molecule, unit_tag, assay_value) VALUES
  ('CCOc1cc(N2CCC(O)CC2)ccc1Nc1ncc2c(n1)N(C)c1ccccc1C(=O)N2C', '%', 100),
  ('CCc1nc(-c2cccc(C)c2)c(-c2ccnc(NC(=O)c3ccccc3)c2)s1', '%', 100);

kinase still bound, per cent of control for `Cc1cn(-c2cc(C(=O)Nc3ccc(C)c(NC(=O)c4ccno4)c3)cc(C(F)(F)F)c2)cn1` is 100

Memo: `COc1cc2c(Nc3ccc(NC(=O)c4ccccc4)cc3)ncnc2cc1OCCCN1CCOCC1` , reported kinase still bound, per cent of control: 100

Consider `CCN(CCO)CCCOc1ccc2c(Nc3cc(CC(=O)Nc4cccc(F)c4)[nH]n3)ncnc2c1` . Its measured kinase still bound, per cent of control is 100

====

tested-system: EPHB3 (human) (UniProt P54753)
Sequence (P54753 whole entry, looked up): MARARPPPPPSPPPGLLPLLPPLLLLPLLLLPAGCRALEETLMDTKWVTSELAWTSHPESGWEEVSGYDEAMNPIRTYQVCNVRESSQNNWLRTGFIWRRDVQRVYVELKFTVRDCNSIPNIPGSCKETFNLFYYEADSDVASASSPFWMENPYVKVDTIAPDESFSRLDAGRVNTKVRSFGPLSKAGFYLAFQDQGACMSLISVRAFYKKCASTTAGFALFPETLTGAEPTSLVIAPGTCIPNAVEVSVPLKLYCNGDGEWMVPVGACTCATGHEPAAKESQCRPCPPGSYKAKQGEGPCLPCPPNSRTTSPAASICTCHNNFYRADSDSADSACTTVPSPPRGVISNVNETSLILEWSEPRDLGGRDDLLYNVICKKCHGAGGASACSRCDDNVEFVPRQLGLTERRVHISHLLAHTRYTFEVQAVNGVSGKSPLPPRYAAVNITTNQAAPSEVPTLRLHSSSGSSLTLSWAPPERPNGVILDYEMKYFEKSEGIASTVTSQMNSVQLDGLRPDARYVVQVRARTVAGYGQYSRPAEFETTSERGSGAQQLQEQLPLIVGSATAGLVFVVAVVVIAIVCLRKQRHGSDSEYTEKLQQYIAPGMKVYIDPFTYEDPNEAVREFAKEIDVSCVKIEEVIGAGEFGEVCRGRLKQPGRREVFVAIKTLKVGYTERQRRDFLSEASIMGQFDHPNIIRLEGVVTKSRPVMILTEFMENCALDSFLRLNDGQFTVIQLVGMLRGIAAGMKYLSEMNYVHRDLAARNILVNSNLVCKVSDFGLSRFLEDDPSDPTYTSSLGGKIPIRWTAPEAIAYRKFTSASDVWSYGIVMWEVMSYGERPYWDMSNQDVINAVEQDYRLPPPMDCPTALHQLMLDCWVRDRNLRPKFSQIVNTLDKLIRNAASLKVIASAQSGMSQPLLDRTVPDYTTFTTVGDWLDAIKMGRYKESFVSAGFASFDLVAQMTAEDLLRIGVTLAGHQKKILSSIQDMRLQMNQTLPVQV
test-name: KINOMEscan competition binding
test-conditions: compound 10.0 µM
Lab note: cut-off is 80%. Strictly less in kinase still bound, per cent of control is Condition met. Exactly 80% or more is Condition not met.

Strictly below 80%: is that where kinase still bound, per cent of control of `COc1cc2ncnc(Nc3cccc(Cl)c3)c2cc1OC` sits?
Condition not met

# check: kinase still bound, per cent of control < 80% for `CCOc1cc(N2CCC(O)CC2)ccc1Nc1ncc2c(n1)N(C)c1ccccc1C(=O)N2C`
Condition not met

hey, is kinase still bound, per cent of control for CC1=C(C(=O)Nc2cc3cn[nH]c3cc2F)C(c2ccc(C(F)(F)F)cc2)CC(=O)N1 (stereo not given) lower than 80% or not?
Condition not met

Say whether its kinase still bound, per cent of control is strictly beneath 80%. Entry: `C=CC(=O)Nc1ccc(C(=O)c2sc(Nc3ccc(N4CCN(C)CC4)cc3OC)nc2N)cc1`
Condition met

====

The reader will find reported kinase still bound, per cent of control values listed item by item below.
tested-system: MYLK3 (human)
test-name: KINOMEscan competition binding
test-conditions: compound 10.0 µM
Answer format: number, then unit.

INSERT INTO measurements (compound, tested_system, readout_type, assay_value) VALUES
  ('N#C/C(=C1/Nc2ccccc2S1)c1ccnc(NCCc2cccnc2)n1', 'MYLK3 (human)', 'kinase still bound, per cent of control', '100%'),
  ('COc1cc(N2CCC(C(N)=O)CC2)ccc1Nc1nc(N)c(Cl)c(Nc2ccccc2S(=O)(=O)C(C)C)n1', 'MYLK3 (human)', 'kinase still bound, per cent of control', '100%'),
  ('CCc1nc(-c2cccc(C)c2)c(-c2ccnc(NC(=O)c3ccccc3)c2)s1', 'MYLK3 (human)', 'kinase still bound, per cent of control', '93%'),
  ('C=CC(=O)Nc1ccc(C(=O)c2sc(Nc3ccc(N4CCN(C)CC4)cc3OC)nc2N)cc1', 'MYLK3 (human)', 'kinase still bound, per cent of control', '100%');

Sure, the documented kinase still bound, per cent of control for `N#Cc1cc(-c2ccnc(Nc3ccc(-n4cnc(-c5cccnc5)n4)cc3)n2)cc(N2CCOCC2)c1` is 100%

kinase still bound, per cent of control recorded for this compound, `COc1cc2c(Nc3ccc(NC(=O)c4ccccc4)cc3)ncnc2cc1OCCCN1CCOCC1` , is 100%
